Source: ChEMBL document CHEMBL3994624

- Method description: Metabolic stability in human liver microsomes assessed as compound remaining at 1 uM in presence of NADPH after 30 mins by LC-MS/MS analysis
- Assay type: ADME, microsome
- Conditions used: read-out: Stability
Metric: remaining at 0.5 h, 1 µM (%)
State the answer as a number, implicitly in %.

Record excerpt, results attached:
Cc1ncc2n1-c1ccc(Cl)cc1C(c1ccccc1F)=NC2 [MIDAZOLAM]    0.1
CCNCCNc1cc(-c2ccc(Cl)c(Cl)c2)c(C#N)c2nc3ccccc3n12    60
CCNCCNc1c(C)c(-c2ccc(C(F)(F)F)cc2)c(C#N)c2nc3ccccc3n12    85

Prompt: What measured remaining at 0.5 h, 1 µM goes with CCNCCNc1cc(-c2cccc(F)c2)c(C#N)c2nc3ccccc3n12 ?
Completion: 89

Prompt: What measured remaining at 0.5 h, 1 µM goes with CCNCCNc1cc(-c2ccc(C(F)(F)F)cc2)c(C#N)c2nc3cc(Cl)ccc3n12 ?
Completion: 87

Prompt: What measured remaining at 0.5 h, 1 µM goes with CCNCCNc1cc(-c2ccc(C(F)(F)F)cc2)c(C#N)c2nc3ccccc3n12 ?
Completion: 84

Prompt: What measured remaining at 0.5 h, 1 µM goes with CS(=O)(=O)c1ccc(-c2cnc(N)c(-c3ccc(C(F)(F)F)nc3)c2)cc1 [MMV-048] ?
Completion: 93

Prompt: What measured remaining at 0.5 h, 1 µM goes with N#Cc1c(-c2ccc(C(F)(F)F)cc2)cc(N2CCC(N)CC2)n2c1nc1ccccc12 ?
Completion: 91

* * *

Each item that follows carries a reported IC50.
- Test system: Ferriprotoporphyrin IX
- Method description: Inhibition of beta hematin formation in water/NP40/DMSO solution after 5 hrs

N#Cc1c(-c2ccc(C(F)(F)F)cc2)cc(NCCn2ccnc2)n2c1nc1ccccc12    < 45 µM
CCNCCNc1cc(-c2ccc(C(F)(F)F)cc2)c(C#N)c2nc3ccccc3n12    < 45 µM
CCNCCNc1cc(-c2ccc(Cl)c(Cl)c2)c(C#N)c2nc3ccccc3n12    < 45 µM
CCNCCNc1cc(-c2ccc(C(F)(F)F)cc2)c(C#N)c2nc3cc(Cl)ccc3n12    < 45 µM

Prompt: Report IC50 for N#Cc1c(-c2ccc(C(F)(F)F)cc2)c(F)c(NCCN2CCC(O)C2)n2c1nc1ccccc12 (stereo not given) tested on Ferriprotoporphyrin IX.
Completion: 120 µM

* * *

- System: Plasmodium falciparum
- Method description: Ratio of IC50 for chloroquine-sensitive Plasmodium falciparum NF54 early 2/3 stage gametocytes to IC50 for chloroquine-sensitive Plasmodium falciparum NF54 late 4/5 stage gametocytes
- Format: functional
Metric: Ratio IC50
Could you respond with only the numeric value?

N#Cc1c(-c2ccc(C(F)(F)F)cc2)cc(NCCn2ccnc2)n2c1nc1ccccc12    1.1

Now take the following compound into account.
Prompt: What measured Ratio IC50 goes with CCNCCNc1cc(-c2cccc(F)c2)c(C#N)c2nc3ccccc3n12 ?
Completion: 1.2

* * *

- Tested on: Mus musculus
- Method description: AUC (0 to infinity) in C57/Bl6 mouse at 2.5 mg/kg, iv by LC-MS method
- Type: ADME, organism-based
- Set-up: dose 2.5 mg/kg, time infinity, route intravenous
- Conditions used: in vivo
Each item that follows carries a reported AUC.
State the answer as a number, implicitly in µM·h.

Prompt: What measured AUC goes with CCNCCNc1cc(-c2ccc(C(F)(F)F)cc2)c(C#N)c2nc3cc(Cl)c(Cl)cc3n12 ?
Completion: 4.27

Prompt: What measured AUC goes with CCNCCNc1cc(-c2ccc(C(F)(F)F)cc2)c(C#N)c2nc3cc(Cl)cc(Cl)c3n12 ?
Completion: 9.52

* * *

- Test system: Plasmodium falciparum
- Method description: Ratio of IC50 for chloroquine-sensitive Plasmodium falciparum NF54 early 2/3 stage gametocytes to IC50 for chloroquine-sensitive Plasmodium falciparum NF54 late 4/5 stage gametocytes
- Type: functional
Where Ratio IC50 equals or exceeds 1, the correct label is yes (1); where it does not, the label is no (0).

Example results:
N#Cc1c(-c2ccc(C(F)(F)F)cc2)cc(NC2CCNCC2)n2c1nc1ccccc12    yes (1)
CCN(CC)CCCC(C)Nc1cc(-c2ccc(C(F)(F)F)cc2)c(C#N)c2nc3ccccc3n12 (stereo not given)    no (0)
CCNCCNc1cc(-c2ccc(C(F)(F)F)cc2)c(C#N)c2nc3cc(Cl)cc(Cl)c3n12    yes (1)

Prompt: Kindly determine if Ratio IC50 recorded for CCNCCNc1cc(C2CCCC2)c(C#N)c2nc3ccccc3n12 is above or exactly 1.
Completion: yes (1)

Prompt: Kindly determine if Ratio IC50 recorded for CCNCCNc1cc(-c2ccc(F)cc2)c(C#N)c2nc3ccccc3n12 is above or exactly 1.
Completion: yes (1)

Prompt: Kindly determine if Ratio IC50 recorded for CCNCCNc1cc(-c2ccc(C#N)cc2)c(C#N)c2nc3ccccc3n12 is above or exactly 1.
Completion: yes (1)

Prompt: Kindly determine if Ratio IC50 recorded for CCNCCNc1cc(-c2ccc(Cl)cc2)c(C#N)c2nc3ccccc3n12 is above or exactly 1.
Completion: yes (1)

Prompt: Kindly determine if Ratio IC50 recorded for CCNCCNc1c(C)c(-c2ccc(C(F)(F)F)cc2)c(C#N)c2nc3ccccc3n12 is above or exactly 1.
Completion: no (0)

Prompt: Kindly determine if Ratio IC50 recorded for CCNCCNc1cc(-c2ccc(C(F)(F)F)cc2)c(C#N)c2nc3ccccc3n12 is above or exactly 1.
Completion: yes (1)

Prompt: Kindly determine if Ratio IC50 recorded for CCNCCNc1cc(C2CCCCC2)c(C#N)c2nc3ccccc3n12 is above or exactly 1.
Completion: yes (1)

* * *

- Method description: Selectivity index, ratio of IC50 for CHO cells to IC50 for chloroquine-sensitive Plasmodium falciparum NF54
- Type: toxicity
- Conditions used: hamster, read-out: Ratio IC50
Each item that follows carries a reported selectivity ratio.
Could you respond with only the numeric value?

CCNCCNc1cc(-c2ccc(C#N)cc2)c(C#N)c2nc3ccccc3n12    23
CCNCCNc1cc(-c2ccccc2)c(C#N)c2nc3ccccc3n12    26

Prompt: What measured selectivity ratio goes with CNC1CCN(c2cc(-c3ccc(C(F)(F)F)cc3)c(C#N)c3nc4ccccc4n23)CC1 ?
Completion: 8

Prompt: What measured selectivity ratio goes with CCNCCNc1cc(-c2ccc(C(F)(F)F)cc2)c(C#N)c2nc3cccc(Cl)c3n12 ?
Completion: 5

* * *

- Method description: Metabolic stability in human liver microsomes assessed as compound remaining at 1 uM in presence of NADPH after 30 mins by LC-MS/MS analysis
- Format: ADME, microsome
- Conditions used: read-out: Stability
Each item that follows carries a reported remaining at 0.5 h, 1 µM.
State the answer as a number, implicitly in %.

Prompt: What measured remaining at 0.5 h, 1 µM goes with CCNCCNc1cc(-c2ccc(C(F)(F)F)cc2)c(C#N)c2nc3cccc(Cl)c3n12 ?
Completion: 89

Prompt: What measured remaining at 0.5 h, 1 µM goes with CCN(CC)CCCC(C)Nc1cc(-c2ccc(C(F)(F)F)cc2)c(C#N)c2nc3ccccc3n12 (configuration not stated) ?
Completion: 53

Prompt: What measured remaining at 0.5 h, 1 µM goes with CN1CCC(Nc2cc(-c3ccc(C(F)(F)F)cc3)c(C#N)c3nc4ccccc4n23)CC1 ?
Completion: 75

Prompt: What measured remaining at 0.5 h, 1 µM goes with CCNCCNc1c(F)c(-c2ccc(C(F)(F)F)cc2)c(C#N)c2nc3ccccc3n12 ?
Completion: 39

Prompt: What measured remaining at 0.5 h, 1 µM goes with CCNCCNc1cc(-c2ccc(C(F)(F)F)cc2)c(C#N)c2nc3cc(Cl)c(Cl)cc3n12 ?
Completion: 95

Prompt: What measured remaining at 0.5 h, 1 µM goes with CCNCCNc1cc(-c2ccc(C(F)(F)F)cc2)c(C#N)c2nc3cc(Cl)cc(Cl)c3n12 ?
Completion: 87

Prompt: What measured remaining at 0.5 h, 1 µM goes with N#Cc1c(-c2ccc(C(F)(F)F)cc2)cc(NC2CCNCC2)n2c1nc1ccccc12 ?
Completion: 99

* * *

- System: Plasmodium falciparum
- Method description: Ratio of IC50 for chloroquine-sensitive Plasmodium falciparum NF54 early 2/3 stage gametocytes to IC50 for chloroquine-sensitive Plasmodium falciparum NF54 late 4/5 stage gametocytes
- Format: functional
Metric: Ratio IC50
Could you respond with only the numeric value?

Prompt: What measured Ratio IC50 goes with CCNCCNc1cc(-c2ccc(C(=O)OC)cc2)c(C#N)c2nc3ccccc3n12 ?
Completion: 1.4

* * *

Each item that follows carries a reported Ratio IC50.
- Test system: Plasmodium falciparum
- Method description: Ratio of IC50 for chloroquine-sensitive Plasmodium falciparum NF54 early 2/3 stage gametocytes to IC50 for chloroquine-sensitive Plasmodium falciparum NF54 late 4/5 stage gametocytes
- Assay type: functional
Could you respond with only the numeric value?

Record excerpt, results attached:
CCNCCNc1cc(-c2cccc(C(F)(F)F)c2)c(C#N)c2nc3ccccc3n12    1.6
CCNCCNc1cc(-c2ccc(C(F)(F)F)cc2)c(C#N)c2nc3cc(Cl)ccc3n12    1.1
CCNCCNc1cc(-c2ccc(C(F)(F)F)cc2)c(C#N)c2nc3cc(Cl)c(Cl)cc3n12    1.2

Now take the following compound into account.
Prompt: What measured Ratio IC50 goes with CCNCCNc1cc(-c2ccc(Cl)c(Cl)c2)c(C#N)c2nc3ccccc3n12 ?
Completion: 1.2
